Entry source: patent US20210230570

- Tgt: Factor X (FX), P00742
- Sequence (P00742 whole entry, looked up): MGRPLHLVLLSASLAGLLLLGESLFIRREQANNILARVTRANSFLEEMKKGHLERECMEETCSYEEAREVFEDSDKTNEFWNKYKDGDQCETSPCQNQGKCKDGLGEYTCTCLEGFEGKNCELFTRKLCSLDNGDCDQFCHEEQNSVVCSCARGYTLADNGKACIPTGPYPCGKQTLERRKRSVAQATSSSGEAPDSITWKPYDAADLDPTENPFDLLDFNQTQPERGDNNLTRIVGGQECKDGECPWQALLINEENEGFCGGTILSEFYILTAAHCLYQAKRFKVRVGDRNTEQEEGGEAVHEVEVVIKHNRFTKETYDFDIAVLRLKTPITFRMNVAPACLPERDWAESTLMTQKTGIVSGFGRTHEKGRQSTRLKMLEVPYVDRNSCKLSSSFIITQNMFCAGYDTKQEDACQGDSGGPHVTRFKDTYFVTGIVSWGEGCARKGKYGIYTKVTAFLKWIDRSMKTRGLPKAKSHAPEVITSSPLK
Assign kcat to each entry below.
Please give a number only; it is taken to be in s⁻¹.

Supply measured kcat of FIXa-Y155F/K247N/N249S/R318Y/R403E (protein) chain 1: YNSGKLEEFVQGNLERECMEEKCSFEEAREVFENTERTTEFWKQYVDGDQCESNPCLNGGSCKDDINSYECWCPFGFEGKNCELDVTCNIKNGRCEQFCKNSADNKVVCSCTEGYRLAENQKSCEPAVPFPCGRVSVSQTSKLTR chain 2: VVGGEDAKPGQFPWQVVLNGKVDAFCGGSIVNEKWIVTAAHCVETGVKITVVAGEHNIEETEHTEQNRSVIRIIPHHNYNAAINKYNHDIALLELDEPLVLNSYVTPICIADKEYTNIFLKFGSGYVSGWGRVFHKGYSALVLQYLRVPLVDRATCLRSTKFTIYNNMFCAGFHEGGRDSCQGDSGGPHVTEVEGTSFLTGIISWGEECAMKGKYGIYTKVSEYVNWIKEKTKLT in your reply.
1.7

Supply measured kcat of FIXa-Y155F/R318Y/T343R/R403E (protein) chain 1: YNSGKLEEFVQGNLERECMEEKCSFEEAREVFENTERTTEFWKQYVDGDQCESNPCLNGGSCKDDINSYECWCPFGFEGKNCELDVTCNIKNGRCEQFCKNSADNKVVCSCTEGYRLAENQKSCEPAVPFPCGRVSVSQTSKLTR chain 2: VVGGEDAKPGQFPWQVVLNGKVDAFCGGSIVNEKWIVTAAHCVETGVKITVVAGEHNIEETEHTEQKRNVIRIIPHHNYNAAINKYNHDIALLELDEPLVLNSYVTPICIADKEYTNIFLKFGSGYVSGWGRVFHKGYSALVLQYLRVPLVDRATCLRSTKFRIYNNMFCAGFHEGGRDSCQGDSGGPHVTEVEGTSFLTGIISWGEECAMKGKYGIYTKVSEYVNWIKEKTKLT in your reply.
5
